This collection of values is drawn from patent US8933228B2.

// cSrc enzyme (Homo sapiens (Human)) pIC50 records
Note on units: pIC50 is unitless, being -log10 of a concentration expressed in mol/L.

COc1ccc(-n2nc(C(C)(C)C)cc2NC(=O)Nc2ccc(Oc3ccnc4[nH]c(=O)n(C)c34)c3ccccc23)cn1 :: 7.80
CC(C)(C)c1cc(NC(=O)Nc2ccc(Oc3ccnc4[nH]c(=O)cnc34)c3ccccc23)n(-c2ccc(CO)cc2)n1 :: 7.96

// molecule `Cc1nc2c(Oc3ccc(NC(=O)Nc4cc(C(C)(C)C)nn4-c4ccccc4)c4ccccc34)ccnc2[nH]c1=O` , assay cSrc enzyme (Homo sapiens (Human)), pIC50 value: 8.15

----------
This document collects IC50 values reported for UniProt:P08631.
Sequence (P08631 whole entry): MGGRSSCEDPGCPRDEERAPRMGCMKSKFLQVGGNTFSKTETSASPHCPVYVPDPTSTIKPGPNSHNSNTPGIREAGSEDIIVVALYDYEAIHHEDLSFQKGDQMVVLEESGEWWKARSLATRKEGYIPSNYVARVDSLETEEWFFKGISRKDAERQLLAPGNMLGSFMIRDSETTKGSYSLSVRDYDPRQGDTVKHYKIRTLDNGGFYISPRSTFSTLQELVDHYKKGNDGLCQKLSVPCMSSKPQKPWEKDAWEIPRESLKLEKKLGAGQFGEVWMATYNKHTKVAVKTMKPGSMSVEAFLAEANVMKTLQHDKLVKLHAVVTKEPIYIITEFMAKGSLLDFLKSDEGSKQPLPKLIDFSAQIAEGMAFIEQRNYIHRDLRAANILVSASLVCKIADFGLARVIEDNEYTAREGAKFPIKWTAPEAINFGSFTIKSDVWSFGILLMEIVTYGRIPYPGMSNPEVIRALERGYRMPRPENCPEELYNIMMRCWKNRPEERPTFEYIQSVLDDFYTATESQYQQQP
Just the number plus its unit, please.

Solved cases (2 shown):
COc1cc(-n2nc(C(C)(C)C)cc2NC(=O)Nc2ccc(Oc3ccnc4[nH]c(=O)cnc34)c3ccccc23)ccc1CO [Example 18] :: 5 nM
COc1ccc(-n2nc(C(C)(C)C)cc2NC(=O)Nc2ccc(Oc3ccnc4[nH]c(=O)n(C)c34)c3ccccc23)cn1 [Example 24] :: 5 nM

COc1ccc(-n2nc(C(C)(C)C)cc2NC(=O)Nc2ccc(Oc3ccnc4[nH]c(=O)cnc34)c3ccccc23)cc1 [Example 25] tested on UniProt:P08631 gave IC50: 5 nM
